Source listed as paper PMC12586182.

- Tested on: SK-N-FI
- ASSAY_INFO: Cell viability assay (ATPlite)
- Assay type: cell-based
- CONDITIONS_USED: Homo sapiens; SK-N-FI cell line, 72 hours incubation
REPORTED_ENDPOINT: IC50 (µM)
Return type: number; implicit unit µM.

Prompt line: If you can, please state the reported IC50 value of `O=C(c1ccc(Oc2ccccc2)cc1Cl)c1c[nH]c2ncnc(N[C@@H]3CC[C@@H](CO)OC3)c12` .
Response line: 3.94

----------
// values below are reported Percentage inhibition of kinase enzyme activity
- TARGET_OR_SYSTEM: LATS2 (Homo sapiens)
- Construct: purchased Carna Biosciences
- Sequence (Q9NRM7 1-1088): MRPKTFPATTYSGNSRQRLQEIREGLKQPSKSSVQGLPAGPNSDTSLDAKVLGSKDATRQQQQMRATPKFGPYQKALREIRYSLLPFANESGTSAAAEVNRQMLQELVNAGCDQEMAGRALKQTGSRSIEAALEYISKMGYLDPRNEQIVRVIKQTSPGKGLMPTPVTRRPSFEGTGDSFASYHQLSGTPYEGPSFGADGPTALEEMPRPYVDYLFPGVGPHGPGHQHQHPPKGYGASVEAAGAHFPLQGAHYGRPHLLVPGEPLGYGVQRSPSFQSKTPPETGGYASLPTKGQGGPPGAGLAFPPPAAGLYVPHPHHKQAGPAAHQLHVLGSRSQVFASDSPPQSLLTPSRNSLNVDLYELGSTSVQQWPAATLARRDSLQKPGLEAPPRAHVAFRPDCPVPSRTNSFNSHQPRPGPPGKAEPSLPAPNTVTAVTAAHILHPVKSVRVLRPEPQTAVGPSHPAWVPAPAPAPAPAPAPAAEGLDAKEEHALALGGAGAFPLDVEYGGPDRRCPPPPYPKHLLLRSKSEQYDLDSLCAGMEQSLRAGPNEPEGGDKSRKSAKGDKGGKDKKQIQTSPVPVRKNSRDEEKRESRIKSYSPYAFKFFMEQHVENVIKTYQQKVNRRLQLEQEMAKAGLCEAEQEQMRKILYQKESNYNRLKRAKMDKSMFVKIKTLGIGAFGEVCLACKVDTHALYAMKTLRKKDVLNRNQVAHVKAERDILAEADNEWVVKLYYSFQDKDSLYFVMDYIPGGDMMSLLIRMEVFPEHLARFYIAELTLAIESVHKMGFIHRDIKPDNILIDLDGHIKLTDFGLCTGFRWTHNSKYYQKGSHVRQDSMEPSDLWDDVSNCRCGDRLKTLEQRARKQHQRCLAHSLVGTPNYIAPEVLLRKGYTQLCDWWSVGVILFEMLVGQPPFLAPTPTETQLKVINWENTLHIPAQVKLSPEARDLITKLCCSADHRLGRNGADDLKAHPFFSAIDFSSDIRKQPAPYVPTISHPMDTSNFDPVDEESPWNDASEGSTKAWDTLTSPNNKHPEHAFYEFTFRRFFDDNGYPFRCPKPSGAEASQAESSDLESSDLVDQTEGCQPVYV
- ASSAY_INFO: Kinase panel profiling at 1 µmol/L (mobility shift assay, Carna)
- Type: biochemical
- CONDITIONS_USED: 1 µmol/L of BTK inhibitor
Answer format: numeric, % implied, no suffix.

The examples below pair each entry with its known result.
compound="O=C(c1ccc(Oc2ccccc2)cc1Cl)c1c[nH]c2ncnc(N[C@@H]3CC[C@@H](CO)OC3)c12 [nemtabrutinib]" target_or_system="LATS2 (Homo sapiens)" data_value=70.96
compound="CC#CC(=O)N1CCC[C@H]1c1nc(-c2ccc(C(=O)Nc3ccccn3)cc2)c2c(N)nccn12 [acalabrutinib]" target_or_system="LATS2 (Homo sapiens)" data_value=-7.45
compound="COc1ccc(F)cc1C(=O)NCc1ccc(-c2nn([C@@H](C)C(F)(F)F)c(N)c2C(N)=O)cc1 [pirtobrutinib]" target_or_system="LATS2 (Homo sapiens)" data_value=2.57

Prompt line: Form: Entry = C=CC(=O)N1CCC[C@@H](n2nc(-c3ccc(Oc4ccccc4)cc3)c3c(N)ncnc32)C1 [ibrutinib] | System = LATS2 (Homo sapiens) | Percentage inhibition of kinase enzyme activity = ____
Response line: 5.45

----------
- System: JM-1
- ASSAY_INFO: Cell viability assay (ATPlite)
- Assay type: cell-based
- CONDITIONS_USED: Homo sapiens, JM1; JM-1 cell line, 72 hours incubation
REPORTED_ENDPOINT: pIC50
Recall that pIC50 is obtained by taking minus log10 of the concentration measured in molar.

Prompt line: Give the measured pIC50 of O=C(c1ccc(Oc2ccccc2)cc1Cl)c1c[nH]c2ncnc(N[C@@H]3CC[C@@H](CO)OC3)c12 [nemtabrutinib] .
Response line: 4.62

----------
- TARGET_OR_SYSTEM: BRSK2 (Homo sapiens, UniProt Q8IWQ3)
- Construct: purchased Carna Biosciences
- Sequence (Q8IWQ3 whole entry): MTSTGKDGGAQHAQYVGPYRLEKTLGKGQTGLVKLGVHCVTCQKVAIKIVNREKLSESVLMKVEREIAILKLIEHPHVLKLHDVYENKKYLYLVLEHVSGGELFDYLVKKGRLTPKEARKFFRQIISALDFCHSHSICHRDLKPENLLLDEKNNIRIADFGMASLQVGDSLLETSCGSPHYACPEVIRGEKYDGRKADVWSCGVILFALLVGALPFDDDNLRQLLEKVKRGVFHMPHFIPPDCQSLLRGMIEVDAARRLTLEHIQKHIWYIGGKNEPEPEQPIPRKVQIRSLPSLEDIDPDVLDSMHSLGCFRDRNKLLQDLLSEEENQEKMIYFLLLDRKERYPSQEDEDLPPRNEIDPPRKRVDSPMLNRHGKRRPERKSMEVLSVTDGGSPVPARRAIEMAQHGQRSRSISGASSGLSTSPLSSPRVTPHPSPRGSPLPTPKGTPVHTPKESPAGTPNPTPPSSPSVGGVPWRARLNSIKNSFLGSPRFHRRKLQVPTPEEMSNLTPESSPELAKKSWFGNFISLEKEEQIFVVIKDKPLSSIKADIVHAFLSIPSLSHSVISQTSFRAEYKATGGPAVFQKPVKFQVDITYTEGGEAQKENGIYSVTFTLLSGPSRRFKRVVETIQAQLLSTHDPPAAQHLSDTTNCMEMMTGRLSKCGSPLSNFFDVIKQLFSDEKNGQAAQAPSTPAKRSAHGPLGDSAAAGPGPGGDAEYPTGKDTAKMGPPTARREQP
- ASSAY_INFO: Kinase panel profiling at 1 µmol/L (mobility shift assay, Carna)
- Assay type: biochemical
- CONDITIONS_USED: 1 µmol/L of BTK inhibitor
REPORTED_ENDPOINT: Percentage inhibition of kinase enzyme activity (%)
Report as a plain number; the unit % is understood.

Below, each entry is followed by its recorded Percentage inhibition of kinase enzyme activity result.
smiles_record=O=C(c1ccc(Oc2ccccc2)cc1Cl)c1c[nH]c2ncnc(N[C@@H]3CC[C@@H](CO)OC3)c12 target_or_system="BRSK2 (Homo sapiens, UniProt Q8IWQ3)" data_value=15.84
smiles_record=C=CC(=O)N1CCC[C@@H](n2nc(-c3ccc(Oc4ccccc4)cc3)c3c(N)ncnc32)C1 target_or_system="BRSK2 (Homo sapiens, UniProt Q8IWQ3)" data_value=15.84
smiles_record=CC#CC(=O)N1CCC[C@H]1c1nc(-c2ccc(C(=O)Nc3ccccn3)cc2)c2c(N)nccn12 target_or_system="BRSK2 (Homo sapiens, UniProt Q8IWQ3)" data_value=-10.15

Prompt line: Looking for the measured Percentage inhibition of kinase enzyme activity of `COc1ccc(F)cc1C(=O)NCc1ccc(-c2nn([C@@H](C)C(F)(F)F)c(N)c2C(N)=O)cc1` , can you help?
Response line: 7.17

----------
Listing: Percentage inhibition of kinase enzyme activity of selected compounds
- TARGET_OR_SYSTEM: PHKG2 (Homo sapiens)
- Construct: purchased Carna Biosciences
- Sequence (P15735 whole entry): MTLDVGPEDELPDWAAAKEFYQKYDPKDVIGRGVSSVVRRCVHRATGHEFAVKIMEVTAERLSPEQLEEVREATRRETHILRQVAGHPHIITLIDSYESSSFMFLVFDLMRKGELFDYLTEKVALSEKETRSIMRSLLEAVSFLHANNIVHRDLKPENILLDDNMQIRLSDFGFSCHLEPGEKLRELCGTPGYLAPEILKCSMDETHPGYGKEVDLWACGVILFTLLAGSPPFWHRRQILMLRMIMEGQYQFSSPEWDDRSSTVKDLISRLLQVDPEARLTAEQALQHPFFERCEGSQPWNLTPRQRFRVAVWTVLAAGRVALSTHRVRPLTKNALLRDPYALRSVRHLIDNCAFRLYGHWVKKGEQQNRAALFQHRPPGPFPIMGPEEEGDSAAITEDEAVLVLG
- ASSAY_INFO: Kinase panel profiling at 1 µmol/L (mobility shift assay, Carna)
- Type: biochemical
- CONDITIONS_USED: 1 µmol/L of BTK inhibitor
Use % as the unit, but write only the number.

smiles_record=COc1ccc(F)cc1C(=O)NCc1ccc(-c2nn([C@@H](C)C(F)(F)F)c(N)c2C(N)=O)cc1 target_or_system="PHKG2 (Homo sapiens)" units_of_measure=% data_value=7.27
smiles_record=CC#CC(=O)N1CCC[C@H]1c1nc(-c2ccc(C(=O)Nc3ccccn3)cc2)c2c(N)nccn12 target_or_system="PHKG2 (Homo sapiens)" units_of_measure=% data_value=0.00605
smiles_record=C=CC(=O)N1CCC[C@@H](n2nc(-c3ccc(Oc4ccccc4)cc3)c3c(N)ncnc32)C1 target_or_system="PHKG2 (Homo sapiens)" units_of_measure=% data_value=0.82

Could you now look at the following compound, please?
Prompt line: For the compound shown here, `O=C(c1ccc(Oc2ccccc2)cc1Cl)c1c[nH]c2ncnc(N[C@@H]3CC[C@@H](CO)OC3)c12` , give the reported Percentage inhibition of kinase enzyme activity.
Response line: 5.39

----------
List of Percentage inhibition of kinase enzyme activity values.
- TARGET_OR_SYSTEM: HIPK2 (Homo sapiens, UniProt Q9H2X6)
- Construct: purchased Carna Biosciences
- Sequence (Q9H2X6 whole entry): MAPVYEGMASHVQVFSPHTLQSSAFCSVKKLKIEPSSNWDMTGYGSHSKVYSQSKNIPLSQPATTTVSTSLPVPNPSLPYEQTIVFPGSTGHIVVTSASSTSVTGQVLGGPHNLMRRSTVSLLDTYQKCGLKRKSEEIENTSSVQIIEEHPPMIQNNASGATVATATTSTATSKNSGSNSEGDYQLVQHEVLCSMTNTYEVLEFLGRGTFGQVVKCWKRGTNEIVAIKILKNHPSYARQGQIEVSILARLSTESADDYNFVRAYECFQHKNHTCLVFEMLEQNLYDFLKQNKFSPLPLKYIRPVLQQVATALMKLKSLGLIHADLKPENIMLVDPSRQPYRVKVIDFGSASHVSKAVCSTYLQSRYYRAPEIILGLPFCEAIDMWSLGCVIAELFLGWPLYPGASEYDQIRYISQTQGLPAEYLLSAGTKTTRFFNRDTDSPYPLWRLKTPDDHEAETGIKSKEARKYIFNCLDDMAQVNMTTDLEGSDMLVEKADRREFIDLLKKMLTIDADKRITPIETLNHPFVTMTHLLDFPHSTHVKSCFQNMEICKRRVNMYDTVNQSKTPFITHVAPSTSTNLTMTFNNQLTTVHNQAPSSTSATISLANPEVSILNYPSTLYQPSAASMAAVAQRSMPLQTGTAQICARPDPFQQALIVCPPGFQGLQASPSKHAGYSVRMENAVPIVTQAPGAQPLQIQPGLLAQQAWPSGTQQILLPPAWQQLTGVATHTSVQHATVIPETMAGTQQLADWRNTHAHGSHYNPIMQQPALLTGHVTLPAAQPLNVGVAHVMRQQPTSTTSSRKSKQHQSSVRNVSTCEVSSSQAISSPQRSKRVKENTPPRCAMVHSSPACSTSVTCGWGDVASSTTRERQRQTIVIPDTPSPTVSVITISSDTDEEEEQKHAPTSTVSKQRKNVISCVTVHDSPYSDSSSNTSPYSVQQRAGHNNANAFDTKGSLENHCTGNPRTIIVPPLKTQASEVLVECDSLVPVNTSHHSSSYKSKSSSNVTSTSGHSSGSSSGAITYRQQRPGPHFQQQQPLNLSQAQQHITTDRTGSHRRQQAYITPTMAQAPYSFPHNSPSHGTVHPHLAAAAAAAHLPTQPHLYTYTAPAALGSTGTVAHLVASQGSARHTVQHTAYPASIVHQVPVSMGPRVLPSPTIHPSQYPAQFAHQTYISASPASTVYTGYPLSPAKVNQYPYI
- ASSAY_INFO: Kinase panel profiling at 1 µmol/L (mobility shift assay, Carna)
- Format: biochemical
- CONDITIONS_USED: 1 µmol/L of BTK inhibitor
Could you kindly put the unit after your number?

Worked examples follow.
molecule="COc1ccc(F)cc1C(=O)NCc1ccc(-c2nn([C@@H](C)C(F)(F)F)c(N)c2C(N)=O)cc1 [pirtobrutinib]" data_value=0.19%
molecule="CC#CC(=O)N1CCC[C@H]1c1nc(-c2ccc(C(=O)Nc3ccccn3)cc2)c2c(N)nccn12 [acalabrutinib]" data_value=-11.44%
molecule="O=C(c1ccc(Oc2ccccc2)cc1Cl)c1c[nH]c2ncnc(N[C@@H]3CC[C@@H](CO)OC3)c12 [nemtabrutinib]" data_value=3.26%

// switching to the query molecule
Prompt line: For the molecule C=CC(=O)N1CCC[C@@H](n2nc(-c3ccc(Oc4ccccc4)cc3)c3c(N)ncnc32)C1 [ibrutinib] , what Percentage inhibition of kinase enzyme activity is on record?
Response line: 2.01%

----------
- TARGET_OR_SYSTEM: KDR (Homo sapiens)
- Construct: purchased Carna Biosciences
- Sequence (P35968 20-1356): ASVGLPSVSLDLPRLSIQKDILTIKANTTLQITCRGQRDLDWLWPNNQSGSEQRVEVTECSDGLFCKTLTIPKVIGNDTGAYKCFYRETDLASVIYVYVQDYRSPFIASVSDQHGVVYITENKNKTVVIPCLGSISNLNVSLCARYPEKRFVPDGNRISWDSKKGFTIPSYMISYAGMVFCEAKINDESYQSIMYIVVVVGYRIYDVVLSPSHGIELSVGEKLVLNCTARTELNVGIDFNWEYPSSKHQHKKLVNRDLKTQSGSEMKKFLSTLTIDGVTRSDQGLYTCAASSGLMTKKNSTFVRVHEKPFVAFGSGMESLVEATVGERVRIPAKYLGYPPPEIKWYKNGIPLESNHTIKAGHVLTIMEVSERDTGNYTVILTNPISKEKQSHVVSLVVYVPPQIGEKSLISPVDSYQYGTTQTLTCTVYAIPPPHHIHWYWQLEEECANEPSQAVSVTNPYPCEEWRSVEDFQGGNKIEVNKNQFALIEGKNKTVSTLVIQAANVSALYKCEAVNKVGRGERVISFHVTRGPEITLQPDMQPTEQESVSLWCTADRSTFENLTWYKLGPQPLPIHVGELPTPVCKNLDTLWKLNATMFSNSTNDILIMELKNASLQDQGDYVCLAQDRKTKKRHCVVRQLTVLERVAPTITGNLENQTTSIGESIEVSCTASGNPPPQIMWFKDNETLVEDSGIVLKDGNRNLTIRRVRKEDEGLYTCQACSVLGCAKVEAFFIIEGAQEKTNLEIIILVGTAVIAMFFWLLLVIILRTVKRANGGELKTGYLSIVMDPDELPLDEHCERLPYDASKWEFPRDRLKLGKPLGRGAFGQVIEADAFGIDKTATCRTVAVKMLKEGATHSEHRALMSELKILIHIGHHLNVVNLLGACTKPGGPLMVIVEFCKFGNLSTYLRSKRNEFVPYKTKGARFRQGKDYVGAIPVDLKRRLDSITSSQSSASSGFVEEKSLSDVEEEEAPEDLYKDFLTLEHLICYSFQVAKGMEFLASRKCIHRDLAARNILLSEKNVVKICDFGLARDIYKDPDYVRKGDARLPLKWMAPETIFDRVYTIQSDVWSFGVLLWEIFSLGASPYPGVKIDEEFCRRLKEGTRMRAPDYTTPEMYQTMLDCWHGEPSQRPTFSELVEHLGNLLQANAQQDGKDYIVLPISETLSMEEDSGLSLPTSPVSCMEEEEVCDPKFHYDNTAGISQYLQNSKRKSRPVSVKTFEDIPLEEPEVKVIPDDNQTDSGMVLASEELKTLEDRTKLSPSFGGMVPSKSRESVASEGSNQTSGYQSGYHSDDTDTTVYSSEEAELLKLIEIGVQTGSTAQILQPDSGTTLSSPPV
- ASSAY_INFO: Kinase panel profiling at 1 µmol/L (mobility shift assay, Carna)
- Type: biochemical
- CONDITIONS_USED: 1 µmol/L of BTK inhibitor
Item-by-item account of Percentage inhibition of kinase enzyme activity
Could you give me the number in %? Just the number is fine.

Prompt line: Requested read-out: Percentage inhibition of kinase enzyme activity. Entry: `C=CC(=O)N1CCC[C@@H](n2nc(-c3ccc(Oc4ccccc4)cc3)c3c(N)ncnc32)C1`
Response line: 83.54

Prompt line: Dear colleague, I am looking for the recorded Percentage inhibition of kinase enzyme activity of the following compound: `C=CC(=O)N1CCC([C@@H]2CCNc3c(C(N)=O)c(-c4ccc(Oc5ccccc5)cc4)nn32)CC1`
Response line: -4.47

Prompt line: Record request: Percentage inhibition of kinase enzyme activity value, item `COc1ccc(F)cc1C(=O)NCc1ccc(-c2nn([C@@H](C)C(F)(F)F)c(N)c2C(N)=O)cc1`
Response line: -1.66

Prompt line: Recorded Percentage inhibition of kinase enzyme activity of `O=C(c1ccc(Oc2ccccc2)cc1Cl)c1c[nH]c2ncnc(N[C@@H]3CC[C@@H](CO)OC3)c12` , please.
Response line: 80.64

Prompt line: Form field: reported Percentage inhibition of kinase enzyme activity of `CC#CC(=O)N1CCC[C@H]1c1nc(-c2ccc(C(=O)Nc3ccccn3)cc2)c2c(N)nccn12`
Response line: 6.81
